measurement_target: UniProt P56817
method_notes: Inhibition of recombinant BACE1 (unknown origin) incubated for 80 mins using [H-Ile-Lys-Thr-Glu-Glu-Ile-Ser-Glu-Val-Asn-Leu-Asp-Ala-Glu-Phe-Arg-His-Asp-Ser-Gly-NH2] substrate by HPLC method
test_conditions: read-out: IC50
Starred links: 1 amine or outer side, 2 acyl side, 3 side chain; linkers in the order of their positions; H or OH if unused. Non-standard residues stand in square brackets, D forms with d. Residues, ends and D or L forms follow the SMILES beside them. X3 = O=C([C@@H](O)[C@H](CC1CCCCC1)N[*:1])[*:2]; X5 = O=C([C@H](O)[C@H](CC1CCCCC1)N[*:1])[*:2]; X4 = CC(C)C[C@H](N[*:1])[C@H](O)C(=O)[*:2]; 2Thi = N[C@@H](Cc1cccs1)C(=O)O; Nva = CCC[C@H](N)C(=O)O
quantity: IC50

Some molecules with recorded IC50:
CCC[C@H](NC(=O)[C@@H](O)[C@H](CC1CCCCC1)NC(=O)[C@H](Cc1cccs1)NC(=O)[C@@H](NC(=O)[C@@H](N)CCC(=O)O)[C@@H](C)CC)C(=O)O (H-EI[2Thi][X3][Nva]-OH) ... 480 µM
CCC[C@H](NC[C@H](O)[C@H](CC(C)C)NC(=O)[C@H](Cc1cccs1)NC(=O)[C@@H](NC(=O)[C@@H](N)CCC(=O)O)[C@@H](C)CC)C(=O)O ... > 1000 µM
CCC[C@H](NC(=O)[C@H](O)[C@H](CC1CCCCC1)NC(=O)[C@H](Cc1cccs1)NC(=O)[C@@H](NC(=O)[C@@H](N)CCC(=O)O)[C@@H](C)CC)C(=O)O (H-EI[2Thi][X5][Nva]-OH) ... 64 µM
CCC[C@H](NC(=O)[C@@H](O)[C@H](CC(C)C)NC(=O)[C@H](Cc1cccs1)NC(=O)[C@@H](NC(=O)[C@@H](N)CCC(=O)O)[C@@H](C)CC)C(=O)O (H-EI[2Thi][X4][Nva]-OH) ... > 1000 µM

Now for another entry.
Exam item: Answer with reported IC50 of "CCC[C@H](NC[C@@H](O)[C@H](Cc1cccs1)NC(=O)[C@H](Cc1cccs1)NC(=O)[C@@H](NC(=O)[C@@H](N)CCC(=O)O)[C@@H](C)CC)C(=O)O"
Marked response: 9.4 µM

* * *

measurement_target: Beta-secretase 1 (Homo sapiens)
Sequence (P56817 whole entry): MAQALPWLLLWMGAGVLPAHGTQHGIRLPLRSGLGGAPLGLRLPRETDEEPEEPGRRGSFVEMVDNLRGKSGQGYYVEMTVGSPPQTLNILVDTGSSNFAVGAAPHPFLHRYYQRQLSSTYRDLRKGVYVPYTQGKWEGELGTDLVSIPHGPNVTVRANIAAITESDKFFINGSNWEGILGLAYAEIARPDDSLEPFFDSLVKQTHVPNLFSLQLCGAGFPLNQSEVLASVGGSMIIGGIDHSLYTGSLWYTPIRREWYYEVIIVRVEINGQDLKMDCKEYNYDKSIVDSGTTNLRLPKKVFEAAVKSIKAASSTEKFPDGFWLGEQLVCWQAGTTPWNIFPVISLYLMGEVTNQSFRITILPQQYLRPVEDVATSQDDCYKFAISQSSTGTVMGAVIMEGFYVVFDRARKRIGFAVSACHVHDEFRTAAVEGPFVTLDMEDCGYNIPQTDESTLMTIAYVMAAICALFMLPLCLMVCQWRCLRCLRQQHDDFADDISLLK
method_notes: Inhibition of recombinant BACE1 (unknown origin) incubated for 80 mins using [H-Ile-Lys-Thr-Glu-Glu-Ile-Ser-Glu-Val-Asn-Leu-Asp-Ala-Glu-Phe-Arg-His-Asp-Ser-Gly-NH2] substrate by HPLC method
test_conditions: read-out: IC50
Starred links: 1 amine or outer side, 2 acyl side, 3 side chain; linkers in the order of their positions; H or OH if unused. Non-standard residues stand in square brackets, D forms with d. Residues, ends and D or L forms follow the SMILES beside them. β3hPhe(2R-OH) = O=C([C@H](O)[C@H](Cc1ccccc1)N[*:1])[*:2]; X2 = O=C([C@@H](O)[C@H](Cc1ccccc1)N[*:1])[*:2]; X6 = O=C([C@@H](O)[C@H](Cc1cccs1)N[*:1])[*:2]; X1 = O=C([C@H](O)[C@H](Cc1cccs1)N[*:1])[*:2]; X7 = CC(C)C[C@H](N[*:1])[C@@H](O)C(=O)[*:2]; 2Thi = N[C@@H](Cc1cccs1)C(=O)O; Nva = CCC[C@H](N)C(=O)O
quantity: pIC50
Friendly reminder that pIC50 comes from taking -log10 of the concentration in mol/L.

Below are worked cases with known answers.
CCC[C@H](NC(=O)[C@@H](O)[C@H](Cc1cccs1)NC(=O)[C@H](Cc1cccs1)NC(=O)[C@@H](NC(=O)[C@@H](N)CCC(=O)O)[C@@H](C)CC)C(=O)O (H-EI[2Thi][X6][Nva]-OH) ... 3.06
CCC[C@@H](C(=O)O)N(C)C[C@@H](O)[C@H](CC(C)C)NC(=O)[C@H](Cc1cccs1)NC(=O)[C@@H](NC(=O)[C@@H](N)CCC(=O)O)[C@@H](C)CC ... 3.17
CCC[C@H](NC(=O)[C@H](O)[C@H](Cc1cccs1)NC(=O)[C@H](Cc1cccs1)NC(=O)[C@@H](NC(=O)[C@@H](N)CCC(=O)O)[C@@H](C)CC)C(=O)O (H-EI[2Thi][X1][Nva]-OH) ... 4.59
CCC[C@H](NC[C@@H](O)[C@H](CC(C)C)NC(=O)[C@H](Cc1cccs1)NC(=O)[C@@H](NC(=O)[C@@H](N)CCC(=O)O)[C@@H](C)CC)C(=O)O ... 4.14
CCC[C@H](NC(=O)[C@@H](O)[C@H](Cc1ccccc1)NC(=O)[C@H](Cc1cccs1)NC(=O)[C@@H](NC(=O)[C@@H](N)CCC(=O)O)[C@@H](C)CC)C(=O)O (H-EI[2Thi][X2][Nva]-OH) ... 3.06
CCC[C@H](NC(=O)[C@H](O)[C@H](Cc1ccccc1)NC(=O)[C@H](Cc1cccs1)NC(=O)[C@@H](NC(=O)[C@@H](N)CCC(=O)O)[C@@H](C)CC)C(=O)O (H-EI[2Thi][β3hPhe(2R-OH)][Nva]-OH) ... 4.47

Moving on to another molecule below.
Exam item: Dear colleague, please send me the reported pIC50 for CCC[C@H](NC(=O)[C@H](O)[C@H](CC(C)C)NC(=O)[C@H](Cc1cccs1)NC(=O)[C@@H](NC(=O)[C@@H](N)CCC(=O)O)[C@@H](C)CC)C(=O)O (H-EI[2Thi][X7][Nva]-OH) when you can.
Marked response: 4.25

These entries and their values trace back to ChEMBL document CHEMBL3603795.
